- Assay system: Cyclin-dependent kinase 5 (Homo sapiens) (UniProt Q00535);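 further: enzyme tested as the CDK5/p35 complex, values are mean percent inhibition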
- Sequence (Q00535 whole entry, looked up): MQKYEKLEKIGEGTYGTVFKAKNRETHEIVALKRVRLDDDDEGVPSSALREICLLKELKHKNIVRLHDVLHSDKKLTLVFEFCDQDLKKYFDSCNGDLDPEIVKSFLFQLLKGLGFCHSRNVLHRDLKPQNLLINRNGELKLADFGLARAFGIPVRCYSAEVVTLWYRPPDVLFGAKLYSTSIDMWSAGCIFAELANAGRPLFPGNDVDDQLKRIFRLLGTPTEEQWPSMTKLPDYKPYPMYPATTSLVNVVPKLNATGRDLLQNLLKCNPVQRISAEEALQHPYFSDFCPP
- Condition details: at 0.1 µM
Field: inhibition. Provide a value for each of the molecules that follow.
# number then unit; no other words

# example entries with known answers
C[C@@H](Oc1cc(-n2cnc3ccc(OC[C@@H](O)CO)cc32)sc1C(N)=O)c1ccccc1Cl
0.29%
Nc1nccc(-c2c(-c3ccc(F)cc3)ncn2CCCN2CCOCC2)n1
0.16%

// switching to the query molecule
Looking for the measured inhibition of CN(C)C(=O)O[C@@H]1CN[C@@H](C#Cc2cc3ncnc(Nc4ccc(OCc5cccc(F)c5)c(Cl)c4)c3s2)C1 , can you help?
0.54%
